experimental-details: Henry solubility constant Hcp at 298.15 K (mol/(m3 Pa))
measurement-parameters: reference: Rytting et al. (1978)
property-name: Henry solubility constant Hcp
Answer using only a numeral; do not append any unit.

Use these answered entries as a reference point.
CCCCCCN : 0.32
CCCCCCCC : 3.1e-06

Pending molecule:
Query: Item CCC(C)O (stereo not drawn) has what recorded Henry solubility constant Hcp?
Reply: 0.98
